# RUN_DESCRIPTION: qHTS Assay for Epigenetic Modulators; further: % of control where 0% means no effect
# COND: mouse C127i GFP locus derepression, cytometry, 30 h; series mostly up to 46.1 µM
Out of some 68,000 compounds screened, about 60 (0.09%) were called active. Not all results are given here.
EXPERIMENTAL_ENDPOINT: GFP derepression (activation)

Worked examples follow.
COMPOUND | VALUE_OBSERVED
CN1CCN(CC(O)COCc2ccc3c(c2)OCO3)CC1 (stereo unspecified) | inactive
COc1ccc2[nH]c(=O)c(CN(CC3CCCO3)C(=O)Nc3ccccc3)cc2c1 (stereo unspecified) | inactive
Cc1ccccc1-c1nc(N(C)Cc2ccco2)c2ccccc2n1 | -2.9% [at 9.22 µM] (inactive)
CCCCCNC(=O)Cc1ccc(OC)cc1 | inactive
CCCCOc1ccc(-c2nnc(-c3ccco3)o2)cc1 | inactive

Consider the additional compound presented here.
Input COC(=O)c1ccc(C2NC(=O)NC(C)=C2C(=O)N(C)C)cc1 (stereo unspecified) . Output GFP derepression (activation): inactive

###

# RUN_DESCRIPTION: qHTS Assay for Epigenetic Modulators; further: % of control where 0% means no effect
# COND: mouse C127i GFP locus derepression, cytometry, 30 h; series mostly up to 46.1 µM
About 60 (0.09%) of roughly 68,000 compounds were called active. Not all results are given here.
EXPERIMENTAL_ENDPOINT: GFP derepression (activation)

COMPOUND | VALUE_OBSERVED
CCOC(=O)c1cc2occc2n1CC(=O)N1CCN(C(=O)c2ccco2)CC1 | inactive
CN1CCN2c3ccccc3Cc3ccccc3[C@@H]2C1 | inactive
N#CC1=C(SCc2ccccc2)NC(=O)C(C#N)C12CCCC2 (stereo not given) | inactive
O=C(NCC12CC3CC(C1)CC(CNC(=O)N1CCCC1)(C3)C2)N1CCCC1 | inactive
COc1ccc2[nH]c3cc4c(=O)c5cc(OC)ccc5[nH]c4cc3c(=O)c2c1 | 1.1% [at 9.22 µM] (inactive)
O=C1c2ccccc2C(Nc2ccc3c(c2)OCCO3)N1Cc1ccco1 (stereo not given) | inactive
COc1ccc(C(CC(=O)O)NC(=O)Cc2ccccc2)cc1 (stereo not given) | inactive
COc1ccc(-c2cc(C(F)(F)F)n3nc(C(=O)N4CCOCC4)c(Cl)c3n2)cc1 | inactive

Input O=C1C2(c3ccccc3)CN(CCCO)CC1(c1ccccc1)CN(CCCO)C2 . Output GFP derepression (activation): inactive

Input Cc1ccc(NC(=O)c2cccc(N(C)C)c2)cc1NC(=O)c1ccc(O)cc1 . Output GFP derepression (activation): inactive

Input O=C(O)COc1c(Cl)cc(Cl)c2cccnc12 . Output GFP derepression (activation): 5.8% [at 9.22 µM] (inactive)

Input O=C(COc1ccc(F)cc1)N(CC1=CCS(=O)(=O)C1)c1ccccc1 . Output GFP derepression (activation): inactive

Input COc1ccc(C2OC(=O)CC2C(=O)NC(C)C)cc1 (stereo not given) . Output GFP derepression (activation): inactive

Input Cn1c(=S)c2[nH]c(SCCCc3ccccc3)nc2n(C)c1=O . Output GFP derepression (activation): -3.4% [at 9.22 µM] (inactive)

Input O=C(c1cccc(F)c1)N1CCC2(CCCN(Cc3ccncc3)C2)CC1 . Output GFP derepression (activation): 0% [at 9.22 µM] (inactive)

Input S=c1c2[nH]cnc2ncn1CCSc1ncnc2nc[nH]c12 . Output GFP derepression (activation): 3.4% [at 9.22 µM] (inactive)

Input CCc1c(C)[nH]c(=S)c(C#N)c1C . Output GFP derepression (activation): inactive

The values you see were collected from PubChem BioAssay AID597.
